- assay-comment: PK evaluation in CD-1 mice (plasma, brain, kidney, liver; i.v. and oral)
- Format: in vivo
- test-conditions: male, CD-1, mouse, brain and plasma; intravenous 5 mg/kg; read-out: mean brain to plasma ratio
parameter-measured: Kp
Give the figure by itself; no unit, no explanation.

Look up and report measured Kp for this entry: O=C1c2ccc(Cl)cc2N/C(=N/N=C/c2cc3ccccc3s2)[C@@H]2CCCN12 [Compound 4k] 3.67

###

- assay-comment: PK evaluation in CD-1 mice (plasma, brain, kidney, liver; i.v. and oral)
- Type: in vivo
- test-conditions: male, CD-1, mouse; intravenous 5 mg/kg, liver; read-out: Cmax or C0
- Description: The primary stock solutions of 4k and phenacetin (internal standard, IS) were prepared in methanol at a concentration of 1.0 mg/mL. […] An Acquity Tandem Quadrupole Mass Detector (Xevo TQ-S; Waters Corp, Milford, MA, USA) in positive electrospray ionization mode was used for mass spectrometric detection. […] Quantification was performed using the monitoring of multiple reaction monitoring (MRM) of following transitions: m/z 409.0/220.9 for 4k and m/z 180.0/92.7 for IS. […]
parameter-measured: Cmax
# do not omit the unit; it follows the number

Give the value of Cmax reported for the following: O=C1c2ccc(Cl)cc2N/C(=N/N=C/c2cc3ccccc3s2)[C@@H]2CCCN12 [Compound 4k] 13500 ng/g

###

- study-target: human CB2 receptors (Homo sapiens)
- Construct: expressed in transfected cells; host or cells: CHO cells
- Sequence (P34972 whole entry): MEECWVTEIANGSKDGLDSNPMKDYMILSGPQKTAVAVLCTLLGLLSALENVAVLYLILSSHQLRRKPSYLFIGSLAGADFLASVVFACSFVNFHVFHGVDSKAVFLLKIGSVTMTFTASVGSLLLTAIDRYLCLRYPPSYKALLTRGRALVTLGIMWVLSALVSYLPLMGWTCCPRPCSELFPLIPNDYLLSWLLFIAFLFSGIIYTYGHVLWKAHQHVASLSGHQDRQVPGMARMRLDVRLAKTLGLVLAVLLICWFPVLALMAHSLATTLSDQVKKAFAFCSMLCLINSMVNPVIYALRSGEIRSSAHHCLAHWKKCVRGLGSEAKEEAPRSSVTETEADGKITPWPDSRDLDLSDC
- assay-comment: Cannabinoid receptor [3H]CP-55,940 displacement binding assay, CB2
- test-conditions: 1 h; 10 µM compound; CHO cell membranes, 2.5 nM radioligand; read-out: Displacement of [3H]CP-55,940 from CB2
molecules and their reported inhibition at 10 µM
Answer in %, number only, no unit symbol.

Sample answers from the record:
1. O=C1c2ccccc2N/C(=N/N=C/c2sc3ccccc3c2Cl)[C@@H]2CCCN12 [Compound 4m] = 50
2. Cc1ncc(/C=N/N=C2/Nc3ccccc3C(=O)N3CCC[C@@H]23)s1 [Compound 4d] = -33.6
3. O=C1c2cc(Br)ccc2N/C(=N/N=C/c2csc3ccccc23)[C@@H]2CCCN12 [Compound 4j] = 65.2
4. Nc1ncc(/C=N/N=C2/Nc3ccccc3C(=O)N3CCC[C@@H]23)s1 [Compound 4f] = 3.72
5. Cc1c(/C=N/N=C2/Nc3ccccc3C(=O)N3CCC[C@@H]23)sc2ccccc12 [Compound 4l] = 51.7

Tell me its inhibition at 10 µM on human CB2 receptors (Homo sapiens): Cn1ccnc1/C=N/N=C1/Nc2ccccc2C(=O)N2CCC[C@@H]12 [Compound 4b] -14.5

Report value: inhibition at 10 µM, system: human CB2 receptors (Homo sapiens), molecule: Cc1ncsc1/C=N/N=C1/Nc2ccccc2C(=O)N2CCC[C@@H]12 [Compound 4e] 19.9

// fetch inhibition at 10 µM for O=C1c2ccccc2N/C(=N/N=C/c2sc(Cl)nc2Cl)[C@@H]2CCCN12 [Compound 4g] ; system: human CB2 receptors (Homo sapiens) 29.3

###

- assay-comment: PK evaluation in CD-1 mice (plasma, brain, kidney, liver; i.v. and oral)
- Type: in vivo
- test-conditions: male, CD-1, mouse; oral 5 mg/kg, plasma; read-out: Cmax
parameter-measured: Cmax (ng/mL)
Could you give me the number in ng/mL? Just the number is fine.

Give the reported value of Cmax for this record: O=C1c2ccc(Cl)cc2N/C(=N/N=C/c2cc3ccccc3s2)[C@@H]2CCCN12 198

###

- assay-comment: PK evaluation in CD-1 mice (plasma, brain, kidney, liver; i.v. and oral)
- Type: in vivo
- test-conditions: male, CD-1, mouse; oral vs intravenous 5 mg/kg, plasma; read-out: F (oral bioavailability)
parameter-measured: bioavailability (%)
Number only, in %; omit the unit.

Report measured bioavailability; entry is O=C1c2ccc(Cl)cc2N/C(=N/N=C/c2cc3ccccc3s2)[C@@H]2CCCN12 18

###

- study-target: human CB2 receptors (Homo sapiens)
parameter-measured: pKi
Units for pKi: none; it is -log10 of a concentration expressed in mol/L.

Tell me measured pKi for O=C1c2ccc(Cl)cc2N/C(=N/N=C/c2cc3ccccc3s2)[C@@H]2CCCN12 please. 6.84

###

- assay-comment: PK evaluation in CD-1 mice (plasma, brain, kidney, liver; i.v. and oral)
- Assay type: in vivo
- test-conditions: male, CD-1, mouse, liver, kidney, other: oral or intravenous, 5 mg/kg, oral or intravenous route, liver and kidneys; read-out: elimination half-lives in the liver and kidneys
parameter-measured: half-life

Output measured half-life for this item: O=C1c2ccc(Cl)cc2N/C(=N/N=C/c2cc3ccccc3s2)[C@@H]2CCCN12 9.3 to 16.7 h

###

- assay-comment: PK evaluation in CD-1 mice (plasma, brain, kidney, liver; i.v. and oral)
- Assay type: in vivo
- test-conditions: male, CD-1, mouse, plasma, iv, 5 mg/kg, intravenous 5 mg/kg, plasma; read-out: t1/2 (converted)
parameter-measured: half-life (h)
Respond with the bare value in h.

Provide only the value of recorded half-life for O=C1c2ccc(Cl)cc2N/C(=N/N=C/c2cc3ccccc3s2)[C@@H]2CCCN12 6.9

###

- assay-comment: PK evaluation in CD-1 mice (plasma, brain, kidney, liver; i.v. and oral)
- Assay type: in vivo
- test-conditions: male, CD-1, mouse; intravenous 5 mg/kg, kidney; read-out: volume of distribution
parameter-measured: Vd (L/kg)
The figure you give is taken to be in L/kg; do not add the unit.

Consider the compound O=C1c2ccc(Cl)cc2N/C(=N/N=C/c2cc3ccccc3s2)[C@@H]2CCCN12 . State its measured Vd. 5.63

###

- assay-comment: PK evaluation in CD-1 mice (plasma, brain, kidney, liver; i.v. and oral)
- Assay type: in vivo
- test-conditions: male, CD-1, mouse; intravenous 5 mg/kg, plasma
parameter-measured: clearance (mL/min/kg)
I only need the number, in mL/min/kg, no unit after it.

Look up and state reported clearance for O=C1c2ccc(Cl)cc2N/C(=N/N=C/c2cc3ccccc3s2)[C@@H]2CCCN12 [Compound 4k] 23.5

###

- study-target: human CB1 receptors (Homo sapiens)
- Construct: expressed in transfected cells; host or cells: CHO cells
- Sequence (P21554 whole entry): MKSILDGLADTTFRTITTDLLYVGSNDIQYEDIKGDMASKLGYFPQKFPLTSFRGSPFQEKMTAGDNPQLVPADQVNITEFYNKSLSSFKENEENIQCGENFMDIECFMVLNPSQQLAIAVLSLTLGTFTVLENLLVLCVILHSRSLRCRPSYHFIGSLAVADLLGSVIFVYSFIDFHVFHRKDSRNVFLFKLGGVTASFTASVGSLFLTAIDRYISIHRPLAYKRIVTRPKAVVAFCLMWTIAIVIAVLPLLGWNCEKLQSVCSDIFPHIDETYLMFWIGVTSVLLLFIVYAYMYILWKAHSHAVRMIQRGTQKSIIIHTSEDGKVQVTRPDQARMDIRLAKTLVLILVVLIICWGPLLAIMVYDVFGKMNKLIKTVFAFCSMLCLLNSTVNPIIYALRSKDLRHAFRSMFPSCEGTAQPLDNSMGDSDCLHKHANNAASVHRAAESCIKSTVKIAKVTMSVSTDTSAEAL
- assay-comment: Cannabinoid receptor [3H]CP-55,940 displacement binding assay, CB1
- test-conditions: 1 h; 10 µM compound; CHO cell membranes, 2.5 nM radioligand; read-out: Displacement of [3H]CP-55,940 from CB1
parameter-measured: inhibition at 10 µM (%)
Field: numeric (%). Do not append units.

1) O=C1c2ccccc2N/C(=N/N=C/c2sc(Cl)nc2Cl)[C@@H]2CCCN12 [Compound 4g] = 24.2

Let us move to another entry and its inhibition at 10 µM.
Provide measured inhibition at 10 µM on human CB1 receptors (Homo sapiens) for Cc1ncsc1/C=N/N=C1/Nc2ccccc2C(=O)N2CCC[C@@H]12 [Compound 4e] please. 21.9

###

- assay-comment: PK evaluation in CD-1 mice (plasma, brain, kidney, liver; i.v. and oral)
- Type: in vivo
- test-conditions: male, CD-1, mouse; intravenous 5 mg/kg, plasma; read-out: Vd
parameter-measured: Vd (L/kg)
Give your result in L/kg as a bare value.

Query Vd for O=C1c2ccc(Cl)cc2N/C(=N/N=C/c2cc3ccccc3s2)[C@@H]2CCCN12 14.3

###

- assay-comment: PK evaluation in CD-1 mice (plasma, brain, kidney, liver; i.v. and oral)
- Type: in vivo
- test-conditions: male, CD-1, mouse; intravenous 5 mg/kg, plasma; read-out: Cmax or C0
parameter-measured: C0

// Input: O=C1c2ccc(Cl)cc2N/C(=N/N=C/c2cc3ccccc3s2)[C@@H]2CCCN12 . Output its C0 only. 4340 ng/mL

###

- assay-comment: PK evaluation in CD-1 mice (plasma, brain, kidney, liver; i.v. and oral)
- Type: in vivo
- test-conditions: male, CD-1, mouse, liver, po, 5 mg/kg, oral 5 mg/kg, liver; read-out: t1/2 (converted)
parameter-measured: half-life (h)
API: value field is a number in h; no unit string.

For the compound O=C1c2ccc(Cl)cc2N/C(=N/N=C/c2cc3ccccc3s2)[C@@H]2CCCN12 [Compound 4k] , give its measured half-life value. 13

###

- assay-comment: PK evaluation in CD-1 mice (plasma, brain, kidney, liver; i.v. and oral)
- Assay type: in vivo
- test-conditions: male, CD-1, mouse, kidney, iv, 5 mg/kg, intravenous 5 mg/kg, kidney; read-out: t1/2 (converted)
parameter-measured: half-life (h)
Give the value, in units of h, as a plain number.

For O=C1c2ccc(Cl)cc2N/C(=N/N=C/c2cc3ccccc3s2)[C@@H]2CCCN12 , write its half-life. 10.2

###

- assay-comment: PK evaluation in CD-1 mice (plasma, brain, kidney, liver; i.v. and oral)
- Format: in vivo
- test-conditions: male, CD-1, mouse; intravenous 5 mg/kg, kidney; read-out: Cmax or C0
- Description: The primary stock solutions of 4k and phenacetin (internal standard, IS) were prepared in methanol at a concentration of 1.0 mg/mL. […] An Acquity Tandem Quadrupole Mass Detector (Xevo TQ-S; Waters Corp, Milford, MA, USA) in positive electrospray ionization mode was used for mass spectrometric detection. […] Quantification was performed using the monitoring of multiple reaction monitoring (MRM) of following transitions: m/z 409.0/220.9 for 4k and m/z 180.0/92.7 for IS. […]
parameter-measured: Cmax (ng/g)
Note: unit ng/g is implicit; provide only the numeric part.

Name the recorded Cmax of the molecule listed here: O=C1c2ccc(Cl)cc2N/C(=N/N=C/c2cc3ccccc3s2)[C@@H]2CCCN12 4720
